Measured target: HCV NS3 helicase (NS3h) (Hepacivirus hominis (Hepatitis C virus), UniProt P29846)
Sequence (P29846 1192-1657): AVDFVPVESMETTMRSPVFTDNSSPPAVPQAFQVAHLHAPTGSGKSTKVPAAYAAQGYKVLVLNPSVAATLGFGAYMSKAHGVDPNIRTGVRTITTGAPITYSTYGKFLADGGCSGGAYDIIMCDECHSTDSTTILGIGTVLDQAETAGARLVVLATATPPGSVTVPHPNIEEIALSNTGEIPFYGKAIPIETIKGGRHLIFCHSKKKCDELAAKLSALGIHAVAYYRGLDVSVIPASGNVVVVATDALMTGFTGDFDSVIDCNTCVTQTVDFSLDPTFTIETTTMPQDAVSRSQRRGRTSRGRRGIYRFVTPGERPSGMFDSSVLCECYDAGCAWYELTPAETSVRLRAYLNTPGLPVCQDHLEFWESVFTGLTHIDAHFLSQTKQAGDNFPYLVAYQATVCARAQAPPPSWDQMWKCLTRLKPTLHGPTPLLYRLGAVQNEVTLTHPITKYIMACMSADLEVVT
Protocol summary: HCV helicase unwinding assay, RNA substrate
Assay type: biochemical
Quantity: IC50

Field: IC50. Fill in for each record below.
1. O=C(O)c1cccc2oc(-c3ccccc3O)nc12
2. CNC(=O)c1cccc2oc(-c3ccccc3O)nc12
3. COC(=O)c1cccc2oc(-c3ccccc3O)nc12
4. COC(=O)c1cccc2oc(-c3cccc4oc(-c5ccccc5O)nc34)nc12

1: > 1800 µM; 2: > 1800 µM; 3: > 1800 µM; 4: > 1200 µM

---

Kindly supply the reported pIC50 values for the records listed here.
Measured target: HCV NS3 helicase (NS3h) (Hepacivirus hominis (Hepatitis C virus))
Protocol summary: HCV helicase unwinding assay, DNA substrate
Assay type: biochemical
pIC50: −log10 of the molar value.

// below: answered compounds
>>> result("O=C(O)c1cccc2oc(-c3ccccc3O)nc12")
"< 2.74"
>>> result("CNC(=O)c1cccc2oc(-c3ccccc3O)nc12")
"< 2.74"

Here is the next item to consider.
# pIC50 lookup, item COC(=O)c1cccc2oc(-c3ccccc3O)nc12
< 2.74
